These data points were gathered from paper PMC13580404.

# Target: T1, oxidized RPN13 Pru (1–150) after incubation with TXNL1^Trx (UniProt Q16186 1-150, oxidized with 0.05% H2O2, then restored by a 3-fold molar excess of TXNL1 Trx; the residues are not told)
# T1 construct: RPN13 Pru domain, residues 1-150; source: E. coli BL21(DE3) pLysS, purified; not shown: His6, N-terminal, cleaved
# T1 sequence (Q16186 1-150): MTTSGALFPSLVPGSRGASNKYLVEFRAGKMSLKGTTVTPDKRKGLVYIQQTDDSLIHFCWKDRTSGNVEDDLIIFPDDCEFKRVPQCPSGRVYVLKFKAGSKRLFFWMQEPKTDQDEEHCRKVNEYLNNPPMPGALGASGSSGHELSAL
# Assay explanation: ITC; RPN13 Pru in the cell (15.6, 20.57 or 16 μM), RPN2 (940–953) in the syringe; 25°C; 20 mM sodium phosphate, 50 mM NaCl, pH 6.0, with 10 mM βME (reducing) or without (non-reducing); one-site fit
# Run parameters: both partners purified
Reported endpoint: Kd
Remember to quote the unit after the number.

Hello, please tell me recorded Kd for this one: QEPEPPEPFEYIDD (peptide, UniProt Q99460 940-953, looked up, Eluted from the resin as GST-RPN2 (940–953); also called RPN2 peptide; GST-RPN2 (940–953); source: E. coli BL21(DE3) pLysS, purified (glutathione resin, eluted with reduced glutathione, Superdex 75)) [RPN2 (940–953)] 0.0189 µM
